For each of the compounds below, state its pIC50.
Keep it numeric: pIC50 is minus log10 of the concentration in mol/L.

Tyrosinase (Agaricus bisporus, UniProt O42713) assay, compound O=c1cc(-c2ccc(O)c(O)c2)oc2c(O)c(O)ccc12 , recorded pIC50 = 7.15

Tyrosinase (Agaricus bisporus, UniProt O42713) assay, compound O=Cc1ccc(O)c(O)c1 , recorded pIC50 = 5.54
